Molecular target: T1, human EphA2 ectodomain (human, UniProt P29317 24-537)
T1 construct: Soluble ectodomain used as the SPR analyte
T1 sequence (P29317 24-537 limits assumed): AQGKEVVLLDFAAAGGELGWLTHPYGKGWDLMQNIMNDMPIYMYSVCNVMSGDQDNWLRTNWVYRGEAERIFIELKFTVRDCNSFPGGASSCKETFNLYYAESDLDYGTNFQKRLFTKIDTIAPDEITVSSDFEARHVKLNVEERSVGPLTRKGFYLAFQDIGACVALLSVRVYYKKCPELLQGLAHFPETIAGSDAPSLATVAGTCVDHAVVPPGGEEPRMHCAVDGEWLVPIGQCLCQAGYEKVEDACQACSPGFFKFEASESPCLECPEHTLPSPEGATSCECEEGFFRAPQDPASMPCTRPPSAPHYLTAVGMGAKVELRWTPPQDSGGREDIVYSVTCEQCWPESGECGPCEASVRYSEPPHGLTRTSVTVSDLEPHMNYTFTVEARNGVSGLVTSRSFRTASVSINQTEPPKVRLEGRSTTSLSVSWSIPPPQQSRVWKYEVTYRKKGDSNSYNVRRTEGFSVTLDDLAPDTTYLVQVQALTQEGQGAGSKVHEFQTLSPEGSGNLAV
Assay: SPR (Biacore 8k), Fab-capture, 37C, 1:1 model;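 note: Anti-EphA2 IgG captured via immobilized anti-Fab, soluble EphA2 ectodomain as analyte at six twofold dilutions from 50 nM, HBS-EP+ pH 7.6 running buffer, double reference subtraction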
# kon values compiled below
Quick reminder: number only, in M⁻¹ s⁻¹, skip the unit.

Known results for binders:
binder	kon / M⁻¹ s⁻¹
anti-EphA2 E152C S375C 1C1 (LC S93V) hIgG1 (WT Heavy Chain) (antibody, V domains shown, also called PA-62-QD06) VH: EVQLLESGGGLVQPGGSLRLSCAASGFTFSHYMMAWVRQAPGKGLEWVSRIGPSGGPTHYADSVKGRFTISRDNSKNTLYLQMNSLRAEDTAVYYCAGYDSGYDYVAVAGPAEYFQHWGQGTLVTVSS VL: DIQMTQSPSSLSASVGDRVTITCRASQSISTWLAWYQQKPGKAPKLLIYKASNLHTGVPSRFSGSGSGTEFSLTISGLQPDDFATYYCQQYNVYSRTFGQGTKVEIKR	296000
anti-EphA2 E152C S375C 1C1 (LC N92Q) hIgG1 (WT Heavy Chain) (antibody, V domains shown, also called 1C1 N92Q IgG; DE-54-AX20) VH: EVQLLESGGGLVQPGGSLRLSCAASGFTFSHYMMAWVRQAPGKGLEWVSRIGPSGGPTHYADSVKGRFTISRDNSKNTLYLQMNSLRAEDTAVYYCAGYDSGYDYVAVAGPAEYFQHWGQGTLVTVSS VL: DIQMTQSPSSLSASVGDRVTITCRASQSISTWLAWYQQKPGKAPKLLIYKASNLHTGVPSRFSGSGSGTEFSLTISGLQPDDFATYYCQQYQSYSRTFGQGTKVEIKR	271000

# context switch: different binder, same kon
# input binder: anti-EphA2 E152C S375C 1C1 (LC S72T) hIgG1 (WT Heavy Chain) (antibody, V domains shown, also called 1C1 S72T IgG; FE-76-NO13) VH: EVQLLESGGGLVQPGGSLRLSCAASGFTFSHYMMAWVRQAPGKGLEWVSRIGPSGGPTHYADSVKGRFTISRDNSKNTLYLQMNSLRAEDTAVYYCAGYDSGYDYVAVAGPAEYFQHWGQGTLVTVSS VL: DIQMTQSPSSLSASVGDRVTITCRASQSISTWLAWYQQKPGKAPKLLIYKASNLHTGVPSRFSGSGSGTEFTLTISGLQPDDFATYYCQQYNSYSRTFGQGTKVEIKR ; wanted: its kon 240000
